Assay: Pharmacokinetics after oral administration of CK polymorphs in rats (20 mg/kg)
Format: in vivo, Sprague-Dawley rats
Conditions: female, Sprague-Dawley, rat, plasma, po, 20 mg/kg, female rats, p.o. 20 mg/kg, mean ± SD (n = 3); read-out: CLz/F (converted)
experimental-readout: CL/F (L/h/kg)
Answer with a number only, understood to be in L/h/kg.

Dear colleague, I am looking for the recorded CL/F of the following compound: CC(C)=CCCC(C)(OC1OC(CO)C(O)C(O)C1O)C1CCC2(C)C1C(O)CC1C3(C)CCC(O)C(C)(C)C3CCC12C (stereo not shown) [Form II]
10.8

----------
Test: Pharmacokinetics after intravenous administration of CK in rats (10 mg/kg)
Assay type: in vivo, Sprague-Dawley rats
Conditions: male, Sprague-Dawley, rat, plasma, iv, 10 mg/kg, male rats, i.v. 10 mg/kg, 6 h, Mean±SD; read-out: Plasma concentrations of CK
experimental-readout: concentration at 6 h (ng/mL)
Answer with a number only, understood to be in ng/mL.

Dear colleague, I am looking for the recorded concentration at 6 h of the following molecule: CC(C)=CCCC(C)(OC1OC(CO)C(O)C(O)C1O)C1CCC2(C)C1C(O)CC1C3(C)CCC(O)C(C)(C)C3CCC12C (stereo not shown) [CK]
20.3

----------
Test: Pharmacokinetics after intravenous administration of CK in rats (10 mg/kg)
Format: in vivo, Sprague-Dawley rats
Conditions: male, Sprague-Dawley, rat, plasma, iv, 10 mg/kg, male rats, i.v. 10 mg/kg, individual rats 1-3; read-out: t1/2z (converted)
experimental-readout: half-life
Provide the measurement as a number trailed by its unit.

Dear colleague, I am looking for the recorded half-life of the following compound: CC(C)=CCCC(C)(OC1OC(CO)C(O)C(O)C1O)C1CCC2(C)C1C(O)CC1C3(C)CCC(O)C(C)(C)C3CCC12C (stereo not shown)
2.28 h

----------
Experiment: Pharmacokinetics after oral administration of CK polymorphs in rats (20 mg/kg)
Type: in vivo, Sprague-Dawley rats
Details: male, Sprague-Dawley, rat, plasma, po, 20 mg/kg, male rats, p.o. 20 mg/kg, mean ± SD (n = 3)
experimental-readout: AUC(0-t) (ng·h/mL)
Answer with a number only, understood to be in ng·h/mL.

Dear colleague, I am looking for the recorded AUC(0-t) of the following compound: CC(C)=CCCC(C)(OC1OC(CO)C(O)C(O)C1O)C1CCC2(C)C1C(O)CC1C3(C)CCC(O)C(C)(C)C3CCC12C (stereo not shown) [Form I]
1150

----------
Assay: Pharmacokinetics after intravenous administration of CK in rats (10 mg/kg)
Format: in vivo, Sprague-Dawley rats
Conditions: male, Sprague-Dawley, rat, plasma, iv, 10 mg/kg, male rats, i.v. 10 mg/kg, individual rats 1-3
Protocol: All samples were analyzed with a triple quadrupole LC-MS/MS (API 4000 LC-MS/MS, AB Sciex, Framingham, MA, USA) coupled with an Agilent 1200 HPLC system (Agilent Technologies, Palo Alto, CA, USA). The MS was equipped with an electrospray system (ESI). The N2 gas temperature and ion-spray voltage were set to 550 °C and 4.5 kV, respectively. […]
experimental-readout: AUC(0-inf)
Provide the measurement as a number trailed by its unit.

Dear colleague, I am looking for the recorded AUC(0-inf) of the following compound: CC(C)=CCCC(C)(OC1OC(CO)C(O)C(O)C1O)C1CCC2(C)C1C(O)CC1C3(C)CCC(O)C(C)(C)C3CCC12C (stereo not shown)
4290 ng·h/mL

----------
Test: Pharmacokinetics after intravenous administration of CK in rats (10 mg/kg)
Assay type: in vivo, Sprague-Dawley rats
Details: female, Sprague-Dawley, rat, plasma, iv, 10 mg/kg, female rats, i.v. 10 mg/kg, 2 h, individual rats 1-3; read-out: Plasma concentrations of CK
experimental-readout: concentration at 2 h
Provide the measurement as a number trailed by its unit.

Dear colleague, I am looking for the recorded concentration at 2 h of the following compound: CC(C)=CCCC(C)(OC1OC(CO)C(O)C(O)C1O)C1CCC2(C)C1C(O)CC1C3(C)CCC(O)C(C)(C)C3CCC12C (stereo not shown) [CK]
86.6 ng/mL

----------
Test: Pharmacokinetics after intravenous administration of CK in rats (10 mg/kg)
Format: in vivo, Sprague-Dawley rats
Conditions: male, Sprague-Dawley, rat, plasma, iv, 10 mg/kg, male rats, i.v. 10 mg/kg, 2 h, individual rats 1-3; read-out: Plasma concentrations of CK
experimental-readout: concentration at 2 h (ng/mL)
Answer with a number only, understood to be in ng/mL.

Dear colleague, I am looking for the recorded concentration at 2 h of the following compound: CC(C)=CCCC(C)(OC1OC(CO)C(O)C(O)C1O)C1CCC2(C)C1C(O)CC1C3(C)CCC(O)C(C)(C)C3CCC12C (stereo not shown) [CK]
60.3

----------
Assay: Pharmacokinetics after intravenous administration of CK in rats (10 mg/kg)
Assay type: in vivo, Sprague-Dawley rats
Settings: male, Sprague-Dawley, rat, plasma, iv, 10 mg/kg, male rats, i.v. 10 mg/kg, individual rats 1-3; read-out: MRT(0-t)
experimental-readout: MRT last (min)
Answer with a number only, understood to be in min.

Dear colleague, I am looking for the recorded MRT last of the following molecule: CC(C)=CCCC(C)(OC1OC(CO)C(O)C(O)C1O)C1CCC2(C)C1C(O)CC1C3(C)CCC(O)C(C)(C)C3CCC12C (stereo not shown) [CK]
18

----------
Assay: Pharmacokinetics after intravenous administration of CK in rats (10 mg/kg)
Assay type: in vivo, Sprague-Dawley rats
Details: female, Sprague-Dawley, rat, plasma, iv, 10 mg/kg, female rats, i.v. 10 mg/kg, 0.25 h, Mean±SD; read-out: Plasma concentrations of CK
experimental-readout: concentration at 0.25 h (ng/mL)
Answer with a number only, understood to be in ng/mL.

Dear colleague, I am looking for the recorded concentration at 0.25 h of the following compound: CC(C)=CCCC(C)(OC1OC(CO)C(O)C(O)C1O)C1CCC2(C)C1C(O)CC1C3(C)CCC(O)C(C)(C)C3CCC12C (stereo not shown)
927

----------
Assay: Pharmacokinetics after intravenous administration of CK in rats (10 mg/kg)
Format: in vivo, Sprague-Dawley rats
Conditions: female, Sprague-Dawley, rat, plasma, iv, 10 mg/kg, female rats, i.v. 10 mg/kg, Mean±SD; read-out: MRT(0-∞)
experimental-readout: MRT inf (min)
Answer with a number only, understood to be in min.

Dear colleague, I am looking for the recorded MRT inf of the following compound: CC(C)=CCCC(C)(OC1OC(CO)C(O)C(O)C1O)C1CCC2(C)C1C(O)CC1C3(C)CCC(O)C(C)(C)C3CCC12C (stereo not shown)
54.6

----------
Assay: Pharmacokinetics after intravenous administration of CK in rats (10 mg/kg)
Format: in vivo, Sprague-Dawley rats
Settings: male, Sprague-Dawley, rat, plasma, iv, 10 mg/kg, male rats, i.v. 10 mg/kg, 6 h, individual rats 1-3; read-out: Plasma concentrations of CK
experimental-readout: concentration at 6 h
Provide the measurement as a number trailed by its unit.

Dear colleague, I am looking for the recorded concentration at 6 h of the following compound: CC(C)=CCCC(C)(OC1OC(CO)C(O)C(O)C1O)C1CCC2(C)C1C(O)CC1C3(C)CCC(O)C(C)(C)C3CCC12C (stereo not shown) [CK]
19.7 ng/mL

----------
Test: Pharmacokinetics after oral administration of CK polymorphs in rats (20 mg/kg)
Format: in vivo, Sprague-Dawley rats
Details: male, Sprague-Dawley, rat, plasma, po, 20 mg/kg, male rats, p.o. 20 mg/kg, mean ± SD (n = 3); read-out: Vz/F
experimental-readout: Vd/F (L/kg)
Answer with a number only, understood to be in L/kg.

Dear colleague, I am looking for the recorded Vd/F of the following compound: CC(C)=CCCC(C)(OC1OC(CO)C(O)C(O)C1O)C1CCC2(C)C1C(O)CC1C3(C)CCC(O)C(C)(C)C3CCC12C (stereo not shown) [Form I]
77.1

----------
Test: Pharmacokinetics after intravenous administration of CK in rats (10 mg/kg)
Format: in vivo, Sprague-Dawley rats
Conditions: male, Sprague-Dawley, rat, plasma, iv, 10 mg/kg, male rats, i.v. 10 mg/kg, Mean±SD
Procedure: All samples were analyzed with a triple quadrupole LC-MS/MS (API 4000 LC-MS/MS, AB Sciex, Framingham, MA, USA) coupled with an Agilent 1200 HPLC system (Agilent Technologies, Palo Alto, CA, USA). The MS was equipped with an electrospray system (ESI). The N2 gas temperature and ion-spray voltage were set to 550 °C and 4.5 kV, respectively. […]
experimental-readout: AUC(0-inf) (ng·h/mL)
Answer with a number only, understood to be in ng·h/mL.

Dear colleague, I am looking for the recorded AUC(0-inf) of the following compound: CC(C)=CCCC(C)(OC1OC(CO)C(O)C(O)C1O)C1CCC2(C)C1C(O)CC1C3(C)CCC(O)C(C)(C)C3CCC12C (stereo not shown)
3790
